Consider the following binders and their measured Activity, No BP, DF-100000 readings.
Biological target: T1, IL-18 receptors on HEK-Blue IL-18 reporter cells (UniProt Q13478 19-541; O95256 20-599, limits assumed)
T1 sequence (looked up) 1: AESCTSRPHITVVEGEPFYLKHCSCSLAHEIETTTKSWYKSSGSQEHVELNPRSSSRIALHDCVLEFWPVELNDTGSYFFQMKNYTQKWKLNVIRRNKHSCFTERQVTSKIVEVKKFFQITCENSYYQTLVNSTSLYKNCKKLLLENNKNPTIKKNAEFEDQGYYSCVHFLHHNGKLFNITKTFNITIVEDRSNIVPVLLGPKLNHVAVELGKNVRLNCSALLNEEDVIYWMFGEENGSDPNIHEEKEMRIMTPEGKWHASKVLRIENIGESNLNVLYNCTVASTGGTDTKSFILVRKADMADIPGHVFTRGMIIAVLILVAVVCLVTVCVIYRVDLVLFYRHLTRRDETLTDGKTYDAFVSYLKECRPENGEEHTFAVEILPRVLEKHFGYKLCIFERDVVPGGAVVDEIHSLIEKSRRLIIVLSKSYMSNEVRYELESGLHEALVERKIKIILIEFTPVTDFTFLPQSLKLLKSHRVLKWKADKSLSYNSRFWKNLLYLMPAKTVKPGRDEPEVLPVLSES
T1 sequence (looked up) 2: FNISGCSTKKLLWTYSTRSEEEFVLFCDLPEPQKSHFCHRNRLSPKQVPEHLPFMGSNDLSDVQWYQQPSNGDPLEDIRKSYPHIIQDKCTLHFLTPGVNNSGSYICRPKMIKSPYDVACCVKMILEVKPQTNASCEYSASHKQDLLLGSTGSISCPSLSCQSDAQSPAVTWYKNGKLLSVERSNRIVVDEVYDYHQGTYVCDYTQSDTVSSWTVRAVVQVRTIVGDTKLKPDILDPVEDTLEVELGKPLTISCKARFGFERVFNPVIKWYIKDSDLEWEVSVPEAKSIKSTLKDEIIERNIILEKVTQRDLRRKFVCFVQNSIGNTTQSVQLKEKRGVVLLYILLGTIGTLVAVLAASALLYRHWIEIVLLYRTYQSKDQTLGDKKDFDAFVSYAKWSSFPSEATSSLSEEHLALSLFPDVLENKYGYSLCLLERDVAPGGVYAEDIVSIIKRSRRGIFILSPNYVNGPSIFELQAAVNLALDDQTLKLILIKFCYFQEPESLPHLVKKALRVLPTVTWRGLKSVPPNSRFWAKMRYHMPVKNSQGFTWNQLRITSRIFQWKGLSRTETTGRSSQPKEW
Assay: cell-based or functional assay
experimental readout: Activity, No BP, DF-100000

binder	meas value
IL-18 variant G3Q, E6D, K53S, D54I, S55E, T63S, N91S, R104Q (ligand) YFQKLDSKLSVIRNLNDQVLFIDQGNRPLFEDMTDSDMRDNAPRTIFIISMYSIEQPRGMAVSISVKSEKISTLSSENKIISFKEMNPPDSIKDTKSDIIFFQQSVPGHDNKMQFESSSYEGYFLASEKERDLFKLILKKEDELGDRSIMFTVQNED	0.09
IL-18 variant G3V, E6Q, T34P, D54M, S55F, N91R, R104H (ligand) YFVKLQSKLSVIRNLNDQVLFIDQGNRPLFEDMPDSDMRDNAPRTIFIISMYKMFQPRGMAVTISVKSEKISTLSSENKIISFKEMNPPDRIKDTKSDIIFFQHSVPGHDNKMQFESSSYEGYFLASEKERDLFKLILKKEDELGDRSIMFTVQNED	0.97
IL-18 variant N91S, R104H (ligand) YFGKLESKLSVIRNLNDQVLFIDQGNRPLFEDMTDSDMRDNAPRTIFIISMYKDSQPRGMAVTISVKSEKISTLSSENKIISFKEMNPPDSIKDTKSDIIFFQHSVPGHDNKMQFESSSYEGYFLASEKERDLFKLILKKEDELGDRSIMFTVQNED	1.34
